Target: human recombinant renin (Homo sapiens, UniProt P00797)
Sequence (P00797 67-406): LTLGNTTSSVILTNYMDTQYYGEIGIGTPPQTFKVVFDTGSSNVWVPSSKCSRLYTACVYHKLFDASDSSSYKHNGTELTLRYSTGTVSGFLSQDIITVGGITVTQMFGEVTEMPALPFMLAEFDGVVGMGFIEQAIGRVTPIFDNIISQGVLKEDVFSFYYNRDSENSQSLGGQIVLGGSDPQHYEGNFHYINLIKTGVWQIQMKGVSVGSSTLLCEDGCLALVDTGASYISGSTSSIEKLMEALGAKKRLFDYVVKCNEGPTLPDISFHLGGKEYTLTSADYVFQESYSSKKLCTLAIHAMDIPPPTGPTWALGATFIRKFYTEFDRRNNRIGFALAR
Experiment: Inhibition of human recombinant renin (enzymatic in vitro assay, Ang I detected by EIA)
Settings: human recombinant renin 0.16 ng/mL, synthetic human angiotensin(1-14) 0.5 μM, 37° C. for 3 h
measure.name: pIC50
# log scale: pIC50 equals minus log10 of the concentration in mol/L

[in] What measured pIC50 goes with COCCCOc1nccc(CN(C(=O)C2=C(c3ccc(CCCOc4c(F)ccc(F)c4Cl)cc3)C[C@@H]3CC[C@H]2N3)C2CC2)c1C (racemic) ?
[out] 9.10
